Numbers sourced from paper PMC9667936.

- SYSTEM TESTED: 14-3-3γ (Homo sapiens)
- Construct: made in house; host or cells: E. coli NiCo21 (DE3)
- Sequence (P61981 whole entry): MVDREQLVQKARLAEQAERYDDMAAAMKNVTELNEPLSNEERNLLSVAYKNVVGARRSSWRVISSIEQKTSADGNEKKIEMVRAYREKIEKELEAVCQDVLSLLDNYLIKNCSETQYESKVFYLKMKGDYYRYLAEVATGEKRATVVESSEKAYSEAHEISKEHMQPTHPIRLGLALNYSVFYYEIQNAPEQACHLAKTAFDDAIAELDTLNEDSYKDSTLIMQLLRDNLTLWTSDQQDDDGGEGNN
- TEST METHOD NOTES: Fluorescence anisotropy (FA) binary binding study: 14-3-3 titrated to fluorescein-labelled peptide
- REPORTED CONDITIONS: Table S4; calculated from FA Kd; mean of n = 3
Where a SMILES comes first, the peptide text is derived from it. [ ]: non-standard residue; d: D form. ξ: configuration not given here. Phe(4-NO2) = N[C@@H](Cc1ccc([N+](=O)[O-])cc1)C(=O)O; ξAla(4-thiazolyl) = NC(Cc1cscn1)C(=O)O; pS = N[C@@H](COP(=O)(O)O)C(=O)O; β3hS = N[C@@H](CO)CC(=O)O; Nva = CCC[C@H](N)C(=O)O; βAla = NCCC(=O)O
REPORTED ENDPOINT: ΔG (kcal/mol)
Write the answer as a number in kcal/mol, unit excluded.

# input Write down ΔG measured for item CCC[C@H](NC(=O)[C@H](N)CCCCN)C(=O)N[C@@H](Cc1ccc([N+](=O)[O-])cc1)C(=O)NC(Cc1cscn1)C(=O)N[C@@H](COP(=O)(O)O)C(=O)N[C@@H](Cc1ccccc1)C(=O)N[C@@H](CO)CC(=O)NCCC(=O)N[C@@H](Cc1ccc([N+](=O)[O-])cc1)C(=O)N[C@@H](CCCCN)C(N)=O (stereo partly drawn) [4b] (H-[dK][Nva][Phe(4-NO2)][ξAla(4-thiazolyl)][pS]F[β3hS][βAla][Phe(4-NO2)]K-NH2; N-terminus and C-terminus assumed)
# output -9.9
